targetSystem: PI3K delta (Homo sapiens, UniProt O00329)
Sequence (O00329 whole entry): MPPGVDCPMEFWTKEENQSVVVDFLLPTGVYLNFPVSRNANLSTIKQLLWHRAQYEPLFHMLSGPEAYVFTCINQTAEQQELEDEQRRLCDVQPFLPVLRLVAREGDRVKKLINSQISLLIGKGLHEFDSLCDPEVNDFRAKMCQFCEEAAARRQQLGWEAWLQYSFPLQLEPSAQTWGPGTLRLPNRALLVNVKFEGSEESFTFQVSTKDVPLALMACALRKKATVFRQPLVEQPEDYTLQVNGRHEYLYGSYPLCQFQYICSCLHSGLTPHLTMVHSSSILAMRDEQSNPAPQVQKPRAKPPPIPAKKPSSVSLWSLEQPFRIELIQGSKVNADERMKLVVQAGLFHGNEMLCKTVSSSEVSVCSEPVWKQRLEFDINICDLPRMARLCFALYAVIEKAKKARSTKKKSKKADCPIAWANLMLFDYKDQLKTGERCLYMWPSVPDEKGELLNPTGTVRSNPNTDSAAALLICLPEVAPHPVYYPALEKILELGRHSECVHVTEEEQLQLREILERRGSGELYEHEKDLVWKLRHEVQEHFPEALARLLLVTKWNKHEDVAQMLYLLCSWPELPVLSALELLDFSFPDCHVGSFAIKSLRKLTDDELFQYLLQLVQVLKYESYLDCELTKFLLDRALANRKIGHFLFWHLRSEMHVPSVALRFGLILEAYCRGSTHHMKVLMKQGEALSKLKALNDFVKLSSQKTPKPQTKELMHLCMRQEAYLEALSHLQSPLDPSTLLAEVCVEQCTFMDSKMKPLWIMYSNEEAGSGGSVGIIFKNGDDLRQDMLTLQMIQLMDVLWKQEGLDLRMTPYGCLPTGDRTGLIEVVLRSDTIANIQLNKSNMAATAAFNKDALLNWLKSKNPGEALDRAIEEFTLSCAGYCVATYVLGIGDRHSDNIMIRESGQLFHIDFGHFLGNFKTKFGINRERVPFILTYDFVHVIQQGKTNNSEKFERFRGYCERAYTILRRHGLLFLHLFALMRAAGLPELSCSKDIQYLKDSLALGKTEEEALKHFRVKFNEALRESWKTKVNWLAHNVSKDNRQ
Sequence (P27986 whole entry partner): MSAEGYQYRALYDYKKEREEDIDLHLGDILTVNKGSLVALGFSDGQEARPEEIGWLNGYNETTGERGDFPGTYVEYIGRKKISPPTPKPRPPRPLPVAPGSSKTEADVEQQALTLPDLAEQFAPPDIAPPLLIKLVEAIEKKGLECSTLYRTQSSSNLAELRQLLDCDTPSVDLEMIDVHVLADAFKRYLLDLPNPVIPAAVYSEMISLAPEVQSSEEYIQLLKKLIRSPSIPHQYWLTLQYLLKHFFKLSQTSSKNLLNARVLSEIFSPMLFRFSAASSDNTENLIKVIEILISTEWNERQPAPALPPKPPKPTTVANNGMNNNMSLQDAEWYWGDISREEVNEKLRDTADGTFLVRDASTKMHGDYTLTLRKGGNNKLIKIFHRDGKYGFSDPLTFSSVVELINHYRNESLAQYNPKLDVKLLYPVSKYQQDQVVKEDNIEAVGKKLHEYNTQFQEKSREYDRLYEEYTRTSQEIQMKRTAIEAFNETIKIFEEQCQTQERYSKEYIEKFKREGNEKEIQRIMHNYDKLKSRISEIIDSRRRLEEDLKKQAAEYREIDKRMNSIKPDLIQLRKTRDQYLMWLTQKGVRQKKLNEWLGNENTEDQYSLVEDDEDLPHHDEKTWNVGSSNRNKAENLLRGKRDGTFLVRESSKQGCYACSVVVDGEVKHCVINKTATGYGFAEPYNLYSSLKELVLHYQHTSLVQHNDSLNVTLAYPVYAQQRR
testDetails: Luciferase-coupled chemiluminescence kinase assay (ATP consumption, KinaseGlo)
pIC50: −log10 of the molar value.
measurementLabel: pIC50

These recorded examples may help you get a feel for the data.
[[record]]
chemicalstring = "Cn1cc(-c2nc3c(N4CCN(S(=O)(=O)c5ccccc5)CC4)ncnc3n2C)cn1"
measurementlabel = "pIC50"
valueobserved = "6.30 to 6.60"

[[record]]
chemicalstring = "CCCCCCNC(=O)c1nc2c(N3CCC4(CC3)C(=O)Nc3ccccc34)ncnc2n1C"
measurementlabel = "pIC50"
valueobserved = "5.82 to 6.30"

[[record]]
chemicalstring = "Cn1c(-c2cn[nH]c2)nc2c(N3CCC4(CC3)C(=O)Nc3ccccc34)ncnc21"
measurementlabel = "pIC50"
valueobserved = "> 7.30"

[[record]]
chemicalstring = "Cn1c(-n2cnc3ccccc32)nc2c(N3CCC(n4c(=O)[nH]c5ccccc54)CC3)ncnc21"
measurementlabel = "pIC50"
valueobserved = "> 7.30"

[[record]]
chemicalstring = "COc1ncc(-c2nc3c(N4CCC(n5c(=O)[nH]c6ccccc65)CC4)ncnc3n2C)c(OC)n1"
measurementlabel = "pIC50"
valueobserved = "6.60 to 7.30"


Now examine the next entry.
pIC50 for Cn1c(-c2ccc(Cl)nc2)nc2c(N3CCC(n4c(=O)[nH]c5ccccc54)CC3)ncnc21 is > 7.30

====

Entries and their IC50 values follow.
targetSystem: PI3K delta (Homo sapiens)
testDetails: Luciferase-coupled chemiluminescence kinase assay (ATP consumption, KinaseGlo)

These solved cases illustrate the format of a correct answer.
[[record]]
molecule = "Cn1c(-c2ccccc2)nc2c(N3CCC(n4c(=O)[nH]c5ccccc54)CC3)ncnc21"
targetsystem = "PI3K delta (Homo sapiens)"
valueobserved = "500 to 1500 nM"

[[record]]
molecule = "Cn1c(C(=O)NCC(F)(F)F)nc2c(N3CCC(n4c(=O)[nH]c5ncccc54)CC3)ncnc21"
targetsystem = "PI3K delta (Homo sapiens)"
valueobserved = "< 50 nM"

[[record]]
molecule = "Cn1c(C(=O)NCC2CCCCC2)nc2c(N3CCC4(CC3)C(=O)Nc3ccccc34)ncnc21"
targetsystem = "PI3K delta (Homo sapiens)"
valueobserved = "500 to 1500 nM"

[[record]]
molecule = "Cn1c(C(=O)OCC2CC2)nc2c(N3CCC(n4c(=O)[nH]c5ccccc54)CC3)ncnc21"
targetsystem = "PI3K delta (Homo sapiens)"
valueobserved = "50 to 250 nM"

[[record]]
molecule = "CCCC(=O)c1nc2c(N3CCC(n4c(=O)[nH]c5ccccc54)CC3)ncnc2n1C"
targetsystem = "PI3K delta (Homo sapiens)"
valueobserved = "50 to 250 nM"

[[record]]
molecule = "Cn1c(C(=O)NCCCO)nc2c(N3CCC(n4c(=O)[nH]c5ccccc54)CC3)ncnc21"
targetsystem = "PI3K delta (Homo sapiens)"
valueobserved = "50 to 250 nM"


// field: IC50; key: Cn1c(C(=O)N[C@H]2CC[C@H](O)CC2)nc2c(N3CCC(n4c(=O)[nH]c5ccccc54)CC3)ncnc21 ; value = < 50 nM

Kindly note the recorded IC50 for Cn1cc(-c2nc3c(N4CCN(c5cccc(OCC(=O)NC6CCCC6)c5)CC4)ncnc3n2C)cn1 , which is 500 to 1500 nM

Entry CCn1cc(-c2nc3c(N4CCC(n5c(=O)[nH]c6ccccc65)CC4)ncnc3n2CC)cn1 , IC50 reported as < 50 nM

Sure, the documented IC50 for Cn1c(C(=O)N2CC(F)(F)C2)nc2c(N3CCC4(CC3)C(=O)Nc3ccccc34)ncnc21 is 50 to 250 nM

Item: CC(NC(=O)c1nc2c(N3CCC4(CC3)C(=O)Nc3ccccc34)ncnc2n1C)c1ccccc1 (stereo not shown) | IC50: 500 to 1500 nM

Form field IC50, entry Cn1c(C(=O)NCC2CC2)nc2c(N3CCC(n4c(=O)oc5ccccc54)CC3)ncnc21 : 50 to 250 nM

IC50 reading for Cn1c(-c2ccco2)nc2c(N3CCC(n4c(=O)[nH]c5ccccc54)CC3)ncnc21 : 250 to 500 nM

From: patent US20140058103A1
